System: PBMCs
protocol: LPS-induced IL-8 release in PBMC cells (assay b)
Type: cell-based, human
setup-conditions: Homo sapiens, PBMC; LPS-stimulated PBMCs; read-out: IC50 Values for Inhibition of Cytokine Release, PBMCs IL-8
quantity-measured: IC50 (nM)
Kindly provide the numeric value in nM only, without the unit symbol.

- molecule: "COCCOCCOCCNC(=O)c1cc(Nc2cc(Oc3ccc(NC(=O)Nc4cc(C(C)(C)C)cc(CNC(=O)CN(C)C)c4OC)c4ccccc34)ccn2)cc(OC)c1"
  unit-info: "nM"
  IC50: 0.9
- molecule: "COc1cc(Nc2cc(Oc3ccc(NC(=O)Nc4cc(C(C)(C)C)cc(P(C)(C)=O)c4OC)c4ccccc34)ccn2)ccc1C(=O)N1CCN(C)CC1"
  unit-info: "nM"
  IC50: 5.1
- molecule: "COc1c(NC(=O)Nc2ccc(Oc3ccnc(Nc4ccc5c(c4)NC(=O)C5)n3)c3ccccc23)cc(C(C)(C)C)cc1P(C)(C)=O"
  unit-info: "nM"
  IC50: 2.8
- molecule: "COc1c(NC(=O)Nc2ccc(Oc3ccnc(Nc4cccc(N=S(C)(C)=O)c4)n3)c3ccccc23)cc(C(C)(C)C)cc1P(C)(C)=O"
  unit-info: "nM"
  IC50: 3.3
- molecule: "COc1cc(Nc2cc(Oc3ccc(NC(=O)Nc4cc(C(C)(C)C)cc(C(=O)NCCN5CCOCC5)c4OC)c4ccccc34)ccn2)cc(OC)c1"
  unit-info: "nM"
  IC50: 2.4
- molecule: "COCCOCCOCCOc1cc(Nc2cc(Oc3ccc(NC(=O)Nc4cc(C(C)(C)C)cc(P(C)(C)=O)c4OC)c4ccccc34)ncn2)cc(OC)c1"
  unit-info: "nM"
  IC50: 5.6
- molecule: "COCCOCCOCCNC(=O)c1cc(Nc2cc(Oc3ccc(NC(=O)Nc4cc(C(C)(C)C)cc(CNC(C)=O)c4OC)c4ccccc34)ccn2)cc(OC)c1"
  unit-info: "nM"
  IC50: 0.5
- molecule: "COc1c(CC(N)=O)cc(C(C)(C)C)cc1NC(=O)Nc1ccc(Oc2ccnc(Nc3cc(OCCN4CCOCC4)cc(C(F)(F)F)c3)c2)c2ccccc12"
  unit-info: "nM"
  IC50: 4
- molecule: "COc1cc(Nc2cc(Oc3ccc(NC(=O)Nc4cc(C(C)(C)C)cc([S+](C)[O-])c4OC)c4ccccc34)ccn2)cc(C(N)=O)c1 (stereo not shown)"
  unit-info: "nM"
  IC50: 0.6
- molecule: "COc1c(NC(=O)Nc2ccc(Oc3ccnc(Nc4ccccc4)n3)c3ccccc23)cc(C(C)(C)C)cc1C(=O)NCCN1CCCC1"
  unit-info: "nM"
  IC50: 7.9

q: I am curious: what IC50 value has been reported for COc1c(NC(=O)Nc2ccc(Oc3ccnc(Nc4ccccc4)c3)c3ccccc23)cc(C(C)(C)C)cc1C(=O)NCCN1CCNCC1 ?
a: 6.8

q: Moving on to the next molecule: COc1cc(Nc2cc(Oc3ccc(NC(=O)Nc4cc(C(C)(C)C)cc([S+](C)[O-])c4OC)c4ccccc34)ccn2)cc(C(=O)NCCN2CCOCC2)c1 (stereo not shown)
a: 0.8

q: Next record, please: COc1cc(Nc2cc(Oc3ccc(NC(=O)Nc4cc(C(C)(C)C)cc(P(C)(C)=O)c4OC)c4ccccc34)ccn2)ccc1C(=O)NCCN(C)C
a: 7

q: And for COc1c(NC(=O)Nc2ccc(Oc3ccnc(Nc4cncnc4)n3)c3ccccc23)cc(C(C)(C)C)cc1P(C)(C)=O [15(r)] ?
a: 4.8

q: Item: COc1cc(Nc2cc(Oc3ccc(NC(=O)Nc4cc(C(C)(C)C)cc(CC(N)=O)c4OC)c4ccccc34)ccn2)cc(OC)c1
a: 1.7

q: Now consider COc1c(CC(N)=O)cc(C(C)(C)C)cc1NC(=O)Nc1ccc(Oc2ccnc(Nc3cccc(OC(F)F)c3)c2)c2ccccc12 [38(s)] and answer again.
a: 5.3

q: Can you handle CCP(=O)(CC)c1cc(C(C)(C)C)cc(NC(=O)Nc2ccc(Oc3ccnc(Nc4ccccc4)c3)c3ccccc23)c1OC next?
a: 9.1

All values here come from patent US9890185B2.
